Test system: Human colon adenocarcinoma LoVo
Assay: Cytotoxicity test (sulphorodamine B), LoVo
Type: cell-based
Settings: 24 h incubation, survival 48 h after removal, read-out: IC50
Procedure: Different cell lines deriving from solid tumors were also used. • 1. Human prostate carcinoma PC3 and DU145. These cell lines were maintained in RPMI 1640 medium containing 10% FCS, 1% sodium pyruvate and 1% glutamine; • 2. Human colon adenocarcinoma LoVo. […] The cytotoxicity tests were carried out using NB4 or HL-60 cells in suspension (10000/well). […] The optical density was measured using a Multiskan spectrophotometer at 540 nm. […]
pIC50: −log10 of the molar value.

>  <Smiles str>
O=C(O)/C=C/c1ccc(-c2ccc(O)c(C34CC5CC(CC(C5)C3)C4)c2)cc1

>  <Study target>
Human colon adenocarcinoma LoVo

>  <pIC50>
6.62

$$$$
